Hey, just so you know, these numbers are from paper PMC7979765.

TEST METHOD NOTES: in vitro
ASSAY CONTEXT: mouse, serum, Murine serum stability (% remaining after 1 hr), Reported value; MBX
REPORTED ENDPOINT: remaining at 1 h

**Q:** Given the entry `O=C(Nc1nnc(-c2ccc(F)cc2)o1)N1CCc2ccccc2C1` , report its measured remaining at 1 h.
**A:** > 99.8%

###

TEST METHOD NOTES: Pharmacokinetic analyses in mice (PO suspension, IV, SC)
Format: in vivo, mouse
ASSAY CONTEXT: female, CD-1, mouse, in vivo, sc, 10 mg/kg, SC (10 mg/kg), 4 hrs, individual animals; read-out: MBX 4132 Concentrations in Mouse Plasma
REPORTED ENDPOINT: concentration at 4 h

**Q:** Given the entry `O=C(Nc1nnc(-c2ccc(F)cc2)o1)N1CCc2ccccc2C1` , report its measured concentration at 4 h.
**A:** 3280 ng/mL
